test system: Alternaria solani; assay: Test D: tomato early blight, sprayed the day before inoculation, visual disease rating; assay type: in vivo; conditions: 40 ppm (marked *); 100 = 100% disease control
Marks after values point to notes of the source that are not given here.

- compound: "Cc1nc(Cl)n(-c2ccc(F)cc2)c1-c1c(F)cc(F)cc1F [compound 492]"
  Test D disease control rating: "100* %"
- compound: "Cc1nc(C)n(-c2ccc(Cl)c(F)c2)c1-c1c(F)ccc(F)c1Cl [compound 489]"
  Test D disease control rating: "98* %"
- compound: "COc1cc(OC)c(Br)c(-n2cnc(Br)c2-c2ccc(Cl)cc2F)c1Cl [compound 642]"
  Test D disease control rating: "0* %"
- compound: "COC(=O)c1ccc(-n2c(Cl)nc(Cl)c2-c2c(F)cccc2F)cc1 [compound 649]"
  Test D disease control rating: "0* %"
- compound: "CN(C)c1ccc(-n2cnc(Cl)c2-c2c(F)cccc2F)cc1Cl [compound 650]"
  Test D disease control rating: "0* %"
- compound: "COc1cc(F)c(-c2c(C)nc(C)n2-c2ccc(F)cc2)c(F)c1 [compound 522]"
  Test D disease control rating: "100* %"
- compound: "COc1cc(F)c(-c2c(C)ncn2-c2ccc(Cl)c(F)c2)c(F)c1 [compound 46]"
  Test D disease control rating: "97* %"
- compound: "Fc1ccc(-n2c(Br)nc(Br)c2-c2c(F)cc(F)cc2F)cc1 [compound 462]"
  Test D disease control rating: "100* %"
- compound: "COc1cc(F)c(-c2c(Cl)nc(Cl)n2-c2ccc(C)c(I)c2)c(F)c1 [compound 647]"
  Test D disease control rating: "0* %"
- compound: "CC(=O)Nc1ccc(-n2c(Br)nc(Cl)c2-c2c(F)cccc2F)cc1 [compound 643]"
  Test D disease control rating: "0* %"
- compound: "Cc1nc(C)n(-c2ccc(F)cc2Cl)c1-c1ccc(Cl)c(F)c1 [compound 543]"
  Test D disease control rating: "60* %"
- compound: "COc1cc(F)c(-n2c(Br)nc(C)c2-c2ccc(C)cc2)c(F)c1 [compound 525]"
  Test D disease control rating: "100* %"
- compound: "CCc1nc(Cl)c(-c2c(F)cccc2F)n1-c1ccc(Cl)cc1 [compound 108]"
  Test D disease control rating: "100* %"
- compound: "Cc1ccc(-n2c(C)nc(C)c2-c2c(F)ccc(F)c2F)cc1 [compound 490]"
  Test D disease control rating: "99* %"
- compound: "Fc1cc(-n2c(Br)nc(Br)c2-c2c(F)ccc(F)c2Cl)ccc1Cl [compound 459]"
  Test D disease control rating: "63* %"
- compound: "COc1cc(F)c(-c2c(Br)nc(Br)n2-c2ccc(F)cc2)c(F)c1 [compound 523]"
  Test D disease control rating: "100* %"
- compound: "COc1cc(F)c(-n2cnc(C)c2-c2cccc(F)c2)c(F)c1 [compound 683]"
  Test D disease control rating: "97* %"
- compound: "Fc1cc(-n2c(Cl)nc(Br)c2-c2c(F)ccc(F)c2Cl)ccc1Cl [compound 463]"
  Test D disease control rating: "99* %"
- compound: "Cc1nc(Cl)n(-c2c(F)cccc2F)c1-c1ccc(Cl)cc1 [compound 466]"
  Test D disease control rating: "100* %"
- compound: "COC(=O)c1ccc(-n2cnc(N(C)C)c2-c2c(F)cccc2F)cc1 [compound 633]"
  Test D disease control rating: "0* %"
- compound: "COc1cc(F)c(-c2c(Cl)nc(C)n2-c2ccc(C)c(Cl)c2)c(F)c1 [compound 601]"
  Test D disease control rating: "98* %"
- compound: "CN(C)c1ccc(-n2cnc(Cl)c2-c2c(F)cccc2F)cc1 [compound 635]"
  Test D disease control rating: "0* %"
- compound: "COc1cc(F)c(-c2c(Cl)nc(Br)n2-c2ccc(OC)c(Cl)c2)c(F)c1 [compound 645]"
  Test D disease control rating: "17* %"
- compound: "CN(C)c1ccc(-n2cnc(N(C)C)c2-c2c(F)cccc2F)cc1 [compound 634]"
  Test D disease control rating: "0* %"
- compound: "Cc1ccc(-n2c(Br)nc(Br)c2-c2c(F)ccc(F)c2Cl)cc1 [compound 460]"
  Test D disease control rating: "85* %"
- compound: "COc1cc(F)c(-n2cnc(C)c2-c2ccc(C)cc2)c(F)c1 [compound 560]"
  Test D disease control rating: "0* %"
- compound: "COCc1nc(Cl)n(-c2c(F)cccc2F)c1-c1ccc(Cl)cc1 [compound 467]"
  Test D disease control rating: "0* %"
- compound: "COc1cc(F)c(-n2cnc(C)c2-c2ccc(Cl)cc2)c(F)c1 [compound 688]"
  Test D disease control rating: "33* %"
- compound: "Cc1nc(Cl)c(-c2c(F)cccc2F)n1-c1ccc2c(c1)OC(F)(F)O2 [compound 608]"
  Test D disease control rating: "0* %"
- compound: "Fc1cc(F)c(-n2c(Br)nc(Cl)c2-c2ccc(Cl)cc2)c(F)c1 [compound 131]"
  Test D disease control rating: "99* %"
- compound: "Cc1ccc(-n2c(Cl)nc(Br)c2-c2c(F)ccc(F)c2Cl)cc1 [compound 464]"
  Test D disease control rating: "89* %"
- compound: "COc1cc(F)c(-c2c(C)nc(C)n2-c2ccc(C)cc2)c(F)c1 [compound 521]"
  Test D disease control rating: "99* %"
- compound: "COc1cc(F)c(-n2c(Cl)nc(CCl)c2-c2cccc(F)c2)c(F)c1 [compound 712]"
  Test D disease control rating: "57* %"
- compound: "COc1cc(F)c(-c2c(Cl)nc(Cl)n2-c2ccc(OC)c(Cl)c2)c(F)c1 [compound 646]"
  Test D disease control rating: "47* %"
- compound: "Cc1nc(C)n(-c2ccc(F)cc2)c1-c1c(F)cc(F)cc1F [compound 491]"
  Test D disease control rating: "99* %"
- compound: "CC(C)c1nc(Cl)c(-c2c(F)cccc2F)n1-c1ccc(Cl)cc1 [compound 116]"
  Test D disease control rating: "0* %"

###

Listed molecules paired with reported pest or weed control at 200 ppm
tested on: Erysiphe graminis f. sp. tritici; experiment: Test J: wheat powdery mildew on wheat seedlings, sprayed the day before inoculation, visual disease rating; format: in vivo; conditions: Blumeria graminis, 168 h; 200 ppm; 100 = 100% disease control, 0 = no control relative to controls

- molecule: "COc1cc(F)c(-c2c(Cl)nc(C)n2-c2ccc(C(F)(F)F)nc2)c(F)c1 [Compound 713]"
  pest or weed control at 200 ppm, %: 100
- molecule: "Cn1nc(Br)c(-c2c(F)cccc2F)c1-c1ccc(Cl)cc1 [Compound 125]"
  pest or weed control at 200 ppm, %: 100
- molecule: "Cc1nc(Cl)c(-c2c(F)ccc(C#N)c2F)n1-c1ccc(Cl)cc1 [Compound 430]"
  pest or weed control at 200 ppm, %: 100
- molecule: "COc1cc(OC)cc(-n2cnc(C)c2-c2c(F)cc(OC)cc2F)c1 [Compound 632]"
  pest or weed control at 200 ppm, %: 97
- molecule: "Cc1nc(Cl)c(-c2ccc(F)cc2)n1-c1ccc(Cl)cc1 [Compound 5]"
  pest or weed control at 200 ppm, %: 99
- molecule: "COc1ccc(F)c(-c2c(Br)nc(Br)n2-c2ccc(F)cc2)c1F [Compound 504]"
  pest or weed control at 200 ppm, %: 100
- molecule: "Cc1nn(C)c(Cc2ccc(F)cc2F)c1-c1ccc(F)cc1Cl [Compound 313]"
  pest or weed control at 200 ppm, %: 99
- molecule: "C=Cc1nc(Cl)c(-c2c(F)ccc(OC)c2F)n1-c1cccc(OC(F)F)c1 [Compound 583]"
  pest or weed control at 200 ppm, %: 83
- molecule: "N#Cc1ccc(F)c(-c2c(Cl)ncn2-c2ccc(Cl)cc2)c1F [Compound 386]"
  pest or weed control at 200 ppm, %: 95
- molecule: "N#Cc1nc(Cl)c(-c2c(F)ccc(F)c2F)n1-c1ccc(Cl)cc1 [Compound 57]"
  pest or weed control at 200 ppm, %: 100
- molecule: "Fc1ccc(-c2c(Cl)nnn2-c2ccc(Cl)cc2)c(F)c1 [Compound 24]"
  pest or weed control at 200 ppm, %: 95
- molecule: "N#CCc1nc(Br)c(-c2c(F)cccc2F)n1-c1ccc(Cl)cc1 [Compound 509]"
  pest or weed control at 200 ppm, %: 78
- molecule: "N#Cc1ccc(F)c(-c2c(Cl)nc(Br)n2-c2ccc(Cl)cc2)c1F [Compound 419]"
  pest or weed control at 200 ppm, %: 99
- molecule: "COc1cc(F)c(-c2c(Cl)nc(Br)n2-c2ccc(C(F)(F)F)nc2)c(F)c1 [Compound 707]"
  pest or weed control at 200 ppm, %: 100
- molecule: "COc1cc(F)c(-c2c(Cl)nc(CF)n2-c2ccc(F)cc2)c(F)c1 [Compound 331]"
  pest or weed control at 200 ppm, %: 100
- molecule: "O=C(O)Cc1nc(Br)c(-c2c(F)cccc2F)n1-c1ccc(Cl)cc1 [Compound 570]"
  pest or weed control at 200 ppm, %: 69
- molecule: "COc1cc(F)c(-c2c(Cl)nc(CO)n2-c2ccc(F)cc2)c(F)c1 [Compound 298]"
  pest or weed control at 200 ppm, %: 0
- molecule: "C#Cc1nc(Cl)c(-c2c(F)cccc2F)n1-c1cccc(F)c1 [Compound 47]"
  pest or weed control at 200 ppm, %: 93
- molecule: "Fc1cccc(F)c1-c1c(Cl)nc(Cl)n1-c1ccc(Cl)cc1 [Compound 3]"
  pest or weed control at 200 ppm, %: 100
- molecule: "COc1ccc(F)c(-c2c(C)nc(C)n2-c2ccc(F)cc2)c1F [Compound 549]"
  pest or weed control at 200 ppm, %: 100
